Recorded Rate of NBD-Toc transfer to SUV, Rate^mut/Rate^wt by entry
- Procedure summary: FRET assay of NBD-Toc transfer from α-TTP variants to SUVs
- Assay type: biochemical
- Details: relative to wild type
Provide only the numeric value, understood in %.

Example results:
>>> value("M209D: α-TTP mutant, Met209 to Asp (helix A10) (protein, UniProt P49638 1-278, looked up, variant M209D) Alpha-tocopherol transfer …: MAEARSQPSAGPQLNALPDHSPLLQPGLAALRRRAREAGVPLAPLPLTDSFLLRFLRARDFDLDLAWRLLKNYYKWRAECPEISADLHPRSIIGLLKAGYHGVLRSRDPTGSKVLIYRIAHWDPKVFTAYDVFRVSLITSELIVQEVETQRNGIKAIFDLEGWQFSHAFQITPSVAKKIAAVLTDSFPLKVRGIHLINEPVIFHAVFSDIKPFLTEKIKERIHMHGNNYKQSLLQHFPDILPLEYGGEEFSMEDICQEWTNFIMKSEDYLSSISESIQ")
37
>>> value("I202D/M209D: α-TTP double mutant (protein, UniProt P49638 1-278, looked up, variant I202D M209D) Alpha-tocopherol transfer …: MAEARSQPSAGPQLNALPDHSPLLQPGLAALRRRAREAGVPLAPLPLTDSFLLRFLRARDFDLDLAWRLLKNYYKWRAECPEISADLHPRSIIGLLKAGYHGVLRSRDPTGSKVLIYRIAHWDPKVFTAYDVFRVSLITSELIVQEVETQRNGIKAIFDLEGWQFSHAFQITPSVAKKIAAVLTDSFPLKVRGIHLINEPVDFHAVFSDIKPFLTEKIKERIHMHGNNYKQSLLQHFPDILPLEYGGEEFSMEDICQEWTNFIMKSEDYLSSISESIQ")
11

--- query ---
// Rate of NBD-Toc transfer to SUV, Rate^mut/Rate^wt lookup, molecule = M209A: α-TTP mutant, Met209 to Ala (protein, UniProt P49638 1-278, looked up, variant M209A) Alpha-tocopherol transfer …: MAEARSQPSAGPQLNALPDHSPLLQPGLAALRRRAREAGVPLAPLPLTDSFLLRFLRARDFDLDLAWRLLKNYYKWRAECPEISADLHPRSIIGLLKAGYHGVLRSRDPTGSKVLIYRIAHWDPKVFTAYDVFRVSLITSELIVQEVETQRNGIKAIFDLEGWQFSHAFQITPSVAKKIAAVLTDSFPLKVRGIHLINEPVIFHAVFSAIKPFLTEKIKERIHMHGNNYKQSLLQHFPDILPLEYGGEEFSMEDICQEWTNFIMKSEDYLSSISESIQ , result: 110
